Biological target: BTK (Homo sapiens, UniProt Q06187)
Sequence (Q06187 402-655 limits assumed): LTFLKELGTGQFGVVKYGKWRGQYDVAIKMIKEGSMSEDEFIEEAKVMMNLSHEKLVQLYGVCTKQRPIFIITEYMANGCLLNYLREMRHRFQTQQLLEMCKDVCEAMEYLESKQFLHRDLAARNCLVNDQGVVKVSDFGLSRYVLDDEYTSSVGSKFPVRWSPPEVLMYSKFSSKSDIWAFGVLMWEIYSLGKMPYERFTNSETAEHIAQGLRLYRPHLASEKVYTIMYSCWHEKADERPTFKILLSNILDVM
Test: biochemical
Conditions: read-out: BTK inhibition (%), 0.75 uM BTK, […] probe 3l, 15 min preincubation
Items are presented alongside their recorded inhibition at 10 µM.

compound	inhibition at 10 µM (%)
O=C(O)CSc1cc(NS(=O)(=O)c2ccc(Br)cc2)c2ccccc2c1O [PCM-0215378]	51.7
O=C(CCc1ccc(O)cc1)c1c(O)cc(O[C@@H]2O[C@H](CO)[C@@H](O)[C@H](O)[C@H]2O)cc1O [PCM-0216363]	17.8
OC[C@H]1O[C@@](CO)(OC[C@@]2(OC[C@@]3(O[C@H]4O[C@H](CO)[C@@H](O)[C@H](O)[C@H]4O)O[C@H](CO)[C@@H](O)[C@@H]3O)O[C@H](CO)[C@@H](O)[C@@H]2O)[C@@H](O)[C@@H]1O [PCM-0216359]	7.7
OCc1c[nH]c2ccccc12 [PCM-0091140]	-14
C=C1/C(=C\C=C2/CCC[C@]3(C)[C@@H]([C@H](C)/C=C/[C@@H](O)C4CC4)CC[C@@H]23)C[C@@H](O)C[C@@H]1O [PCM-0214926]	1.6
C=C1[C@H]2C[C@@]3([C@@H]1O)[C@@H](CC2=O)[C@]12[C@@H]4C[C@H]3[C@H]1N(CC)C[C@]4(C)CC[C@@H]2O [PCM-0216364]	19.3
CN1c2ccccc2C(=O)Nc2cnc(Nc3ccc(N4CCC(O)CC4)cc3)nc21 [PCM-0215745]	93.8
CCN1CC(CCN2CCOCC2)C(c2ccccc2)(c2ccccc2)C1=O (centres unmarked) [PCM-0095590]	8.6
CCOc1cc2ncc(C#N)c(Nc3ccc(OCc4ccccn4)c(Cl)c3)c2cc1NC(=O)/C=C/CN(C)C [PCM-0095315]	80
CCCCOc1c(C(=O)c2c(F)cc(C)cc2F)cnc2n[nH]cc12 [PCM-0095294]	-2.1
CC1=C(C(=O)OC2CCCCC2)C(c2ccc([N+](=O)[O-])cc2)C2=C(CC(C)(C)CC2=O)N1 (centres unmarked) [PCM-0095815]	46.3
COC[C@H]1C[C@@H](c2ncc(-c3ccc4c(c3)COc3cc5c(ccc6[nH]c([C@@H]7CC[C@H](C)N7C(=O)[C@@H](NC(=O)OC)C(C)C)nc65)cc3-4)[nH]2)N(C(=O)[C@H](NC(=O)OC)c2ccccc2)C1 [PCM-0214920]	56
Nc1nc(Cl)nc2c1ncn2[C@H]1C[C@H](O)[C@@H](CO)O1 [PCM-0086228]	-16.6
O=c1c2ccccc2nc(/C=C/c2cccnc2)n1Cc1ccccc1 [PCM-0102024]	0
